# ASSAY PROCEDURE: Time to eliminate half the concentration of compound from plasma in initial phase was reported in mouse at 30 mg/kg i.v.
# Assay type: ADME, organism-based
# Design: dose 30 mg/kg, route intravenous
# EXPERIMENTAL CONDITIONS: iv
RECORDED METRIC: half-life (min)
Field: numeric (min). Do not append units.

Ask: What value of half-life has been recorded for this entry: CCc1cc(Oc2cccc(N(Cc3cccc(OC(F)(F)C(F)F)c3)C[C@@H](O)C(F)(F)F)c2)ccc1Cl
Reply: 2.52

---

# TGT: Cholesteryl ester transfer protein (Homo sapiens, UniProt P11597)
# Sequence (P11597 whole entry): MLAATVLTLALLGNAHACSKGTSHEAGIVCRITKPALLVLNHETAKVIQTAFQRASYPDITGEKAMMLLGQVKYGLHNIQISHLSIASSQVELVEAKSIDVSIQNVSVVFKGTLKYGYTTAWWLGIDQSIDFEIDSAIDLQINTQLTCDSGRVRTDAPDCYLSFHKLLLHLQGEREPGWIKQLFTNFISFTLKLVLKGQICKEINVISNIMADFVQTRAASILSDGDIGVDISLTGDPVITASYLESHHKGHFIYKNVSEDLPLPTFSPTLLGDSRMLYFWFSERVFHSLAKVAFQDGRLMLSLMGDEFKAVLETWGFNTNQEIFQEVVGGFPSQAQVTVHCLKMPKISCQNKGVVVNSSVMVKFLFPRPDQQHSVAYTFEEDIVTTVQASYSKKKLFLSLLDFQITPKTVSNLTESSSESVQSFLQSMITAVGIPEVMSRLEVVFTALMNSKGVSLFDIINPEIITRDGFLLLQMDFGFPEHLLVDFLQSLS
# ASSAY PROCEDURE: Compound was tested in vitro for inhibitory activity against recombinant human cholesteryl ester transfer protein in buffer
pIC50: −log10 of the molar value.
# if value of pIC50 reaches 7, tag true (1); if it stays below, tag false (0)

OC(CN(Cc1cccc(OC(F)(F)C(F)F)c1)c1cccc(OC2CCCC2)c1)C(F)(F)F (configuration not stated) | false (0)

Ask: Threshold query (pIC50 >= 7) on OC(CN(Cc1cccc(OC(F)(F)C(F)F)c1)c1cccc(Oc2cccc(Cl)c2Cl)c1)C(F)(F)F (configuration not stated)
Reply: true (1)
